Data provenance is patent US20200247894A1.

Below, each of the binders is paired with its reported Kd value.
- assay_system: T1, Macaca fascicularis IL2Rγ extracellular domain expressed with a C-terminal myc-myc-hexahistidine tag (Macaca fascicularis)
- T1 construct: also called mfIL-2Rg-MMH; mfIL-2RG-MMH
- T1 chain: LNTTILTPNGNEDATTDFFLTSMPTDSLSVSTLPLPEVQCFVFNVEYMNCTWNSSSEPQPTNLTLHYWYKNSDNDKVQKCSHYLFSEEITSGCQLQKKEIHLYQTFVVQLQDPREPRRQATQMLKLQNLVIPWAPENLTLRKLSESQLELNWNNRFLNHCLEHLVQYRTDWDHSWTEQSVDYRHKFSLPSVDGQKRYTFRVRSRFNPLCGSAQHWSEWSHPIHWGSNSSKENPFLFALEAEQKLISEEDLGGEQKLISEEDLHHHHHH
- method_notes: SPR Biacore 4000, mAb captured by anti-hFc, HBS-ET, 25C
- Procedure: Equilibrium dissociation constants (KD values) for IL-2Rγ binding to purified anti-IL2Rγ monoclonal antibodies were determined using a Biacore 4000 instrument equipped with a real-time surface plasmon resonance biosensor. […] The dissociation of monoclonal antibody bound IL2Rγ reagents were monitored for 8-10 minutes in HBS-ET running buffer. […] Binding dissociation equilibrium constants (KD) and dissociative half-lives (t_{1/2}) were calculated from the kinetic rate constants as: […]
Give the quantity in nM, number only.

Below, each entry is followed by its recorded Kd result.
q: Using the record for H4H12899P (antibody, human IgG4 S228P, kappa, V domains shown, anti-IL2Rγ monoclonal antibody expressed with human IgG4 Fc) VH: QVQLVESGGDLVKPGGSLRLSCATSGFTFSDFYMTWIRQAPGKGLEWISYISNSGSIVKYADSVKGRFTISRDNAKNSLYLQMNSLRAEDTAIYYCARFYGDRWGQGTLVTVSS VL: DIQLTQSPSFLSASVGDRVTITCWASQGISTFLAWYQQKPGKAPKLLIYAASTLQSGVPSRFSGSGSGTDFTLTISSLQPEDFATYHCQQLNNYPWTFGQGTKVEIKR , report its Kd.
a: 4.01

q: Quick one: H4H13538P (antibody, human IgG4 S228P, kappa, V domains shown, anti-IL2Rγ monoclonal antibody expressed with human IgG4 Fc) VH: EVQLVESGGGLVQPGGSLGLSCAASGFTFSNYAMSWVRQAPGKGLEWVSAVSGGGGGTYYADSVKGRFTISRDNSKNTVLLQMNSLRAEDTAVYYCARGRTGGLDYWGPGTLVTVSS VL: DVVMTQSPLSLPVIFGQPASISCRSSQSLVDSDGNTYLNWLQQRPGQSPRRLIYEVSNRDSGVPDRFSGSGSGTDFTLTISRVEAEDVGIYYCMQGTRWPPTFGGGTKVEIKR
a: 2.28

q: Quick one: H4H12884P (antibody, human IgG4 S228P, kappa, V domains shown, anti-IL2Rγ monoclonal antibody expressed with human IgG4 Fc) VH: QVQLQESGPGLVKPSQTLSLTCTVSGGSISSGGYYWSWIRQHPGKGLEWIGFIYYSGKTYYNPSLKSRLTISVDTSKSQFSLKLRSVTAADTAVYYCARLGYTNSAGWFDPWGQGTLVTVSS VL: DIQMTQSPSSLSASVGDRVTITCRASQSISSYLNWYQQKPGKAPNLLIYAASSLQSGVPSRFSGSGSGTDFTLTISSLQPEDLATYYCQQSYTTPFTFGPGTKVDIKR
a: 6.98

q: Quick one: H4H12871P (antibody, human IgG4 S228P, kappa, V domains shown, anti-IL2Rγ monoclonal antibody expressed with human IgG4 Fc; also called REGN9434) VH: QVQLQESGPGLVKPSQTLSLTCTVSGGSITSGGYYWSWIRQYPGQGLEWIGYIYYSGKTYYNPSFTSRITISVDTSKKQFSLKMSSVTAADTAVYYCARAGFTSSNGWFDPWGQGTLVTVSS VL: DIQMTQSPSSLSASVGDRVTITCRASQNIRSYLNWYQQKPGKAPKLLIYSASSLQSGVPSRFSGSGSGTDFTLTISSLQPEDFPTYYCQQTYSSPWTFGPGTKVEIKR
a: 5.19

q: Quick one: H4H12886P (antibody, human IgG4 S228P, kappa, V domains shown, anti-IL2Rγ monoclonal antibody expressed with human IgG4 Fc) VH: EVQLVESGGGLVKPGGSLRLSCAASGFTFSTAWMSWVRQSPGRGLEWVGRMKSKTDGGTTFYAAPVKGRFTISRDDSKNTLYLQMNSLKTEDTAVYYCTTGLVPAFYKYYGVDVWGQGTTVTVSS VL: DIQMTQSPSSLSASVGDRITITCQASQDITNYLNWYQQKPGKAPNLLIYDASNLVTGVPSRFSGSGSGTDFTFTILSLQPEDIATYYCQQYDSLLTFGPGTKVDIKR
a: 2.45

Others:
q: Using the record for H4H12900P (antibody, human IgG4 S228P, kappa, V domains shown, anti-IL2Rγ monoclonal antibody expressed with human IgG4 Fc) VH: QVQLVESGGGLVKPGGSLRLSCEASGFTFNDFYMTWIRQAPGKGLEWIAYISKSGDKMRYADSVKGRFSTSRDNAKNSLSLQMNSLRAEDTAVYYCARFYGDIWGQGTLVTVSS VL: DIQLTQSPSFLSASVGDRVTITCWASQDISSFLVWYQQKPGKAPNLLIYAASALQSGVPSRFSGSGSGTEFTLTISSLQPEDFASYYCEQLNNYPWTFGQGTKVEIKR , report its Kd.
a: 1.44

q: Quick one: H4H12863P (antibody, human IgG4 S228P, kappa, V domains shown, anti-IL2Rγ monoclonal antibody expressed with human IgG4 Fc) VH: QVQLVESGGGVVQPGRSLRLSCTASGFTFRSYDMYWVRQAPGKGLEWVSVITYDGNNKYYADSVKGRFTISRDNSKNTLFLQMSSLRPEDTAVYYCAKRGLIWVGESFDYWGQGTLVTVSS VL: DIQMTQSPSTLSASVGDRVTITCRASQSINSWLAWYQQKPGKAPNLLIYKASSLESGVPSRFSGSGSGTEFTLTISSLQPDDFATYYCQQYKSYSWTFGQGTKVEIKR
a: 1.91
